Biological target: T1, Pro-C1s
T1 construct: also called purified pro-C1s protein
T1 chain: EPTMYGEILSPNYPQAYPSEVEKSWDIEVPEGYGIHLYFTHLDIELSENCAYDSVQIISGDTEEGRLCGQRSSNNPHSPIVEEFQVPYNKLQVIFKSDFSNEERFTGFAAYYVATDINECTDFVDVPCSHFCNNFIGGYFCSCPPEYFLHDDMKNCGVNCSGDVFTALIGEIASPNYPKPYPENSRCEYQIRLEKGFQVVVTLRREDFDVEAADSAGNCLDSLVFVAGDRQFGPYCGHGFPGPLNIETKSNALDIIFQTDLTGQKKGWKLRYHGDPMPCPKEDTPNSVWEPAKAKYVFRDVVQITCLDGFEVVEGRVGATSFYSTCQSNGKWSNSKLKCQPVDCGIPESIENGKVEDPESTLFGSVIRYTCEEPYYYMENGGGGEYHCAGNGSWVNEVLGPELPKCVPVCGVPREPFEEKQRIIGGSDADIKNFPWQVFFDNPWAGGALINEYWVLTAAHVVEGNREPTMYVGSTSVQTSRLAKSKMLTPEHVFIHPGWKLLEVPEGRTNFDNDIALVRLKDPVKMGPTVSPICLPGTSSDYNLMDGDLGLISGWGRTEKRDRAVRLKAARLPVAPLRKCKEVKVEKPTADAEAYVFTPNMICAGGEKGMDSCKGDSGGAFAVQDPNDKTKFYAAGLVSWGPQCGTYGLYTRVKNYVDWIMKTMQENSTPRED
Assay: bio-layer interferometry (BLI), kinetic analysis
measurement type: kon
Show the value, then the unit it is measured in.

Recorded kon, per entry:
Could you please provide reported kon for antibody IPN-M13 (antibody, V domains shown, Mouse monoclonal antibody (NZBW hybridoma); Same VL and VH as IPN-M1 and IPN-M3) VH: EVQLQQSGAELVRPGASVKLSCTASGFNIKDDYIHWVKQRPEQGLEWIGRIDPADDHTKYAPKFQDKATMTADTSSNTACLQLNSLTSEDTAVYYCAIYGSGWAWFPYWGQGTLVSVSA VL: DIVLTQSTDYLAVSLGQRATISCKASQSVDYDGDSYMNWYQQKPGQPPKLLIYAASNLESGIPARFSGSGSGTDFTLNIHPVEEEDAATYYCQQSNEDPWTFGGGTKLEIK ? Thanks!
16200 M⁻¹ s⁻¹

For the binder antibody IPN-M28 (antibody, V domains shown, Mouse monoclonal antibody (NZBW hybridoma)) VH: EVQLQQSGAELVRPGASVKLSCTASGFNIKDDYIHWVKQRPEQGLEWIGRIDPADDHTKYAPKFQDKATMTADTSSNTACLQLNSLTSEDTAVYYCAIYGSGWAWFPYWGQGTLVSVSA VL: DIVLTQTPDYLAVSLGQRATISCKASQSVDYDGDSYMNWYQQKPGQPPKLLIYAASNLESGIPARFSGSGSGTDFTLNIHPVEEEDAATYYCQQSNEDPWTFGGGTKLEIK , report kon.
10600 M⁻¹ s⁻¹

--- query ---
Look up and report measured kon for this entry: antibody IPN-M2 (antibody, V domains shown, Mouse monoclonal antibody (NZBW hybridoma); Same VL and VH as IPN-M8) VH: EVKLQQSGAELVRPGASVKLSCTASGFNIKDDYIHWVKQRPEQGLEWIGRIDPADGHTKYAPKFQVKATITADTSSNTAYLQLSSLTSEDTAVYYCARYGYGREVFDYWGQGTTLTVSS VL: DIVLTQSPASLAVSLGQRATISCKASQSVDYDGDSYMNWYQQKTGQPPKILIYDASNLESGIPARFSGSGSGTDFTLNIHPVEEEDAAIYYCQQSNEDPWTFGGGTKLEIK
4660 M⁻¹ s⁻¹

All figures here come from patent US20200079876A1.
